- experiment.summary: Solubility of peptide compounds in buffer formulations (Table 5)
- Assay type: physicochemical
- test.parameters: aqueous buffer; 50 mM phosphate buffer pH 7.4, 2 h agitation, target 1 mg/ml; read-out: Solubility, Buffer pH 7.4
Numbered stars: 1 amine (or outer) side, 2 acyl side, 3 side chain; on linkers, the order of the positions; unused ones are H or OH. Bridge positions count the residues as written; N and C are the ends. Square brackets hold non-standard residues; d marks the D form. Peptide text beside a SMILES is read from it. * marks the point of attachment. Lys(Me,(CH2)4NMe(CH2)5CO) = CN(CCCCCC(=O)[*:3])CCCCN(C)CCCC[C@H](N[*:1])C(=O)[*:2]; Trp(7-Me) = Cc1cccc2c(C[C@H](N)C(=O)O)c[nH]c12; Trp(1-Me) = Cn1cc(C[C@H](N)C(=O)O)c2ccccc21; NH(2-(3-pyridyl)ethyl) = c1cncc(CCN*)c1; 2Nal = N[C@@H](Cc1ccc2ccccc2c1)C(=O)O; 3Pal = N[C@@H](Cc1cccnc1)C(=O)O; Thp = NC1(C(=O)O)CCOCC1; Me2NCH2CH2 = CN(C)CC*; Aib = CC(C)(N)C(=O)O; Aoc = NCCCCCCCC(=O)O; Sar = CNCC(=O)O
Measured solubility at 2 h accompanies every entry in the list below.
test.readout: solubility at 2 h

Cc1cccc2c(C[C@@H]3NC(=O)CCCCCN(C)CCCCN(C)CCCC[C@@H](C(=O)NCC(=O)N[C@@H](Cc4cccnc4)C(=O)N(C)CC(N)=O)NC(=O)C(C)(C)NC(=O)[C@H](Cc4ccc5ccccc5c4)NC(=O)[C@H](Cc4ccc(OCCN(C)C)cc4)NC(=O)C4(CCOCC4)NC(=O)[C@H](CCC(N)=O)NC3=O)c[nH]c12 [compound 26] ([Trp(7-Me)]Q[Thp]Y(Me2NCH2CH2)[2Nal][Aib][Lys(Me,(CH2)4NMe(CH2)5CO)]G[3Pal][Sar]-NH2; lactam N-7)    ≥ 890 µg/mL
CC(=O)NCCCC[C@@H]1NC(=O)[C@H](Cc2cn(C)c3ccccc23)NC(=O)CCCCCN(C)CCCCN(C)CCCC[C@@H](C(=O)NCC(=O)NCCc2cccnc2)NC(=O)C(C)(C)NC(=O)[C@H](Cc2ccc3ccccc3c2)NC(=O)[C@H](Cc2ccc(OCCN(C)C)cc2)NC(=O)C2(CCOCC2)NC1=O [compound 23] ([Trp(1-Me)]K(Ac)[Thp]Y(Me2NCH2CH2)[2Nal][Aib][Lys(Me,(CH2)4NMe(CH2)5CO)]G-{NH(2-(3-pyridyl)ethyl)}; lactam N-7)    ≥ 880 µg/mL
Cc1cccc2c(C[C@@H]3NC(=O)CCCCCCCNC(=O)CC[C@@H](C(=O)N[C@@H](CC(N)=O)C(=O)N[C@@H](Cc4cccnc4)C(=O)N(C)CC(N)=O)NC(=O)C(C)(C)NC(=O)[C@H](Cc4ccc5ccccc5c4)NC(=O)[C@H](Cc4ccc(OCCN(C)C)cc4)NC(=O)C4(CCOCC4)NC(=O)[C@H](CC(C)C)NC3=O)c[nH]c12 [compound 9] ([Aoc][Trp(7-Me)]L[Thp]Y(Me2NCH2CH2)[2Nal][Aib]EN[3Pal][Sar]-NH2; lactam N-8)    80 µg/mL
